Target: AfXDH (Aspergillus flavus, UniProt A0A7U2N396)
Sequence (A0A7U2N396 1-369): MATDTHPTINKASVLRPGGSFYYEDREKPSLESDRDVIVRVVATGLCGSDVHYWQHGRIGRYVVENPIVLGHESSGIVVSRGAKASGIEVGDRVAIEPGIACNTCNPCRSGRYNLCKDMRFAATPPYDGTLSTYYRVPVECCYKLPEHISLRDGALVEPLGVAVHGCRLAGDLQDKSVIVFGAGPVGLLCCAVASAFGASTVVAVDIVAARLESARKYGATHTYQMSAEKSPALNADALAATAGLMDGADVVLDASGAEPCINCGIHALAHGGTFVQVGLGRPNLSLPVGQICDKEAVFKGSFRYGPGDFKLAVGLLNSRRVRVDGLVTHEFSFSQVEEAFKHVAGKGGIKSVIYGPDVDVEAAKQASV
measured attribute: Ki (µM)
Give the number; µM is assumed, so skip it.

Query: Given the compound NC(=O)C1=CN([C@@H]2O[C@H](COP(=O)(O)OP(=O)(O)OC[C@H]3O[C@@H](n4cnc5c(N)ncnc54)[C@H](O)[C@@H]3O)[C@@H](O)[C@H]2O)C=CC1 , what is its reported Ki?
Response: 250
